- assay_target: recombinant Bri2(90-236) (Homo sapiens, UniProt Q9Y287)
- Construct: His6 (N, cleaved yes); thioredoxin (N, cleaved yes); made in house; host or cells: E. coli Origami(DE3)pLysS, pET-32c vector
- Sequence (Q9Y287 90-236): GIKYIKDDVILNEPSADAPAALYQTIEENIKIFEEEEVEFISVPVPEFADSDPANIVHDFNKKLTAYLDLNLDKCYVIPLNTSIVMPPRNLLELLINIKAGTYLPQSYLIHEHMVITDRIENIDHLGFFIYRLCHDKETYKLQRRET
- experiment_description: ESI-MS binding of peptides to recombinant Bri2(90-236) (substrate specificity)
- condition_parameters: 20 μM Bri2(90-236), 50 μM peptide (peptide/protein ratio 2.5)
parameter: complex formation of peptide with recombinant Bri2(90-236)

substance	recorded_value
YYY: homotripeptide with aromatic side-chains (Ac-Tyr-Tyr-Tyr-NH2)	found to form complexes
KFFEYNGKKFFE	found to form complexes
